B1: 6NMW (parent)
chain: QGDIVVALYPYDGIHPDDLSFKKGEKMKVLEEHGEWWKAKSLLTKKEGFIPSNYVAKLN

Variants of: B1
Assay: folding stability dG (cDNA display proteolysis); higher = more stable
Conditions: PBS, room temperature
Binned folding stability dG; ranges: low: < 1 kcal/mol; intermediate: ≥ 1 kcal/mol and < 3 kcal/mol; high: ≥ 3 kcal/mol

Lookup: Textbook exercise: identify the category of the variant given here, S41F , according to its measured value.
Found: low
